All figures here come from ChEMBL document CHEMBL4689842.

Tested on: HEK-293T
experiment: Multiplex assay against HEK293T
Assay type: toxicity, cell-based
cond: human, 48 h, 1 µM, compound concentration 1 uM, replicate 2
// reported Population Mitochondria Different-Phenotype (%) for each item listed
Write the value in % as a bare number.

Use these answered entries as a reference point.
molecule	study_target	unit_string	readout_value
COc1cc(Nc2nccc(-c3cnn4nc(OC)ccc34)n2)cc(C(F)(F)F)c1	HEK-293T	%	6
CC(C)NC(=O)N1CC[C@H](NC2=Nc3cc(F)ccc3N(CC(F)F)c3ccc(Cl)cc32)C1	HEK-293T	%	4
O=C(c1cc2c(cc1F)OC(c1ccc(F)cc1)(c1ccc(Cl)cc1Cl)O2)N1CCOCC1 (stereo not given)	HEK-293T	%	11
CC(C)Oc1ccccc1C(=O)Nc1ccccc1C(=O)Nc1cccc(S(=O)(=O)C(F)(F)F)c1	HEK-293T	%	46

Next up:
In: Lab note: HEK-293T assay, enter Population Mitochondria Different-Phenotype (%) for COc1cc2ncn(-c3cc(OCc4ccccc4C(F)(F)F)c(C(N)=O)s3)c2cc1OC [GW843682X] here
Out: 36

====

Test system: HEK-293T
experiment: Multiplex assay against HEK293T
Assay type: toxicity, cell-based
cond: human, 48 h, 1 µM, compound concentration 1 uM, replicate 1
Binning of Population Hoechst High Intensity Objects (%) into classes: low-valued = under 10%, mid-valued = from 10% up to 20%, high-valued = 20% and over

Below, 6 molecules whose answers are already recorded.
molecule	group
COc1cc2ncn(-c3cc(OCc4ccccc4C(F)(F)F)c(C(N)=O)s3)c2cc1OC [GW843682X]	mid-valued
CNC(=O)Nc1ccc(-c2nc(N3CC4CCC(C3)O4)c3cnn(C4CCC5(CC4)OCCO5)c3n2)cc1	high-valued
CCc1nn(CCCN2CCN(c3cccc(Cl)c3)CC2)c(=O)n1CCOc1ccccc1.Cl [NEFAZODONE HYDROCHLORIDE]	low-valued
O=C(c1cc2c(cc1F)OC(c1ccc(F)cc1)(c1ccc(Cl)cc1Cl)O2)N1CCOCC1 (stereo unspecified)	mid-valued
CCCSc1nc(N[C@@H]2C[C@H]2c2ccc(F)c(F)c2)c2nnn([C@@H]3C[C@H](OCCO)[C@@H](O)[C@H]3O)c2n1	mid-valued
CC(C)NC(=O)N1CC[C@H](NC2=Nc3cc(F)ccc3N(CC(F)F)c3ccc(Cl)cc32)C1	high-valued

In: Please let me know in which category the item CC(C)Oc1ccccc1C(=O)Nc1ccccc1C(=O)Nc1cccc(S(=O)(=O)C(F)(F)F)c1 belongs.
Out: mid-valued

In: Please let me know in which category the item COC(=O)C1=C(C)NC(C)=C(C(=O)OCCCN2CCC(c3ccccc3)(c3ccccc3)CC2)[C@H]1c1cccc([N+](=O)[O-])c1 belongs.
Out: low-valued

====

Tested on: Fibroblast
experiment: Multiplex assay against human fibroblast
Type: toxicity, cell-based
cond: 12 h, 1 µM, compound concentration 1 uM, replicate 1
measurement_type: Population Mitochondria Different-Phenotype (%)
Answer with the value and then the unit.

compound	readout_value
CCc1nn(CCCN2CCN(c3cccc(Cl)c3)CC2)c(=O)n1CCOc1ccccc1.Cl [NEFAZODONE HYDROCHLORIDE]	10%
CCCSc1nc(N[C@@H]2C[C@H]2c2ccc(F)c(F)c2)c2nnn([C@@H]3C[C@H](OCCO)[C@@H](O)[C@H]3O)c2n1	5%
CN1CCN(Cc2ccc(Nc3ncc(Cl)c(Nc4ccccc4S(=O)(=O)N(C)C)n3)cc2)CC1	3%

Next up:
In: Read off the recorded Population Mitochondria Different-Phenotype (%) for Cc1nc(N2CC[C@H](O)C2)ncc1-c1cc(C(F)(F)F)cc2[nH]ncc12
Out: 6%

====

Tested on: U2OS
experiment: Multiplex assay against U2OS
Format: toxicity, cell-based
cond: human, 24 h, 1 µM, compound concentration 1 uM, replicate 2
// reported Population Apoptotic (%) for each item listed
Write the value in % as a bare number.

Use these answered entries as a reference point.
compound	Population Apoptotic (%)
C=CC(=O)Nc1cccc(Oc2nc(Nc3ccc(N4CCN(C)CC4)cc3OC)ncc2Cl)c1	92
C=CC(=O)Nc1cccc(Sc2nc(Nc3ccc(N4CCN(C)CC4)cc3)ncc2Cl)c1	100

Next up:
In: Lab note: U2OS assay, enter Population Apoptotic (%) for COc1cc2ncn(-c3cc(OCc4ccccc4C(F)(F)F)c(C(N)=O)s3)c2cc1OC [GW843682X] here
Out: 55

====

Test system: Fibroblast
experiment: Multiplex assay against human fibroblast
Type: toxicity, cell-based
cond: 48 h, 1 µM, compound concentration 1 uM, replicate 2
measurement_type: Population Tubulin-Different-Phenotype (%)
Write the value in % as a bare number.

compound	unit_string	readout_value
COc1cc(Nc2nccc(-c3cnn4nc(OC)ccc34)n2)cc(C(F)(F)F)c1	%	29

In: Read off the recorded Population Tubulin-Different-Phenotype (%) for CC(C)Oc1ccccc1C(=O)Nc1ccccc1C(=O)Nc1cccc(S(=O)(=O)C(F)(F)F)c1
Out: 55

In: Read off the recorded Population Tubulin-Different-Phenotype (%) for C[C@]12CC[C@@H]3c4ccc(O)cc4CC[C@H]3[C@@H]1CC[C@@H]2O [ESTRADIOL]
Out: 26

====

// reported Population Mitotic Cells (%) for each item listed
Test system: HEK-293T
experiment: Multiplex assay against HEK293T
Assay type: toxicity, cell-based
cond: human, 24 h, 1 µM, compound concentration 1 uM, replicate 1
Write the value in % as a bare number.

compound	Population Mitotic Cells (%)
CC(C)Oc1ccccc1C(=O)Nc1ccccc1C(=O)Nc1cccc(S(=O)(=O)C(F)(F)F)c1	35
COC(=O)C1=C(C)NC(C)=C(C(=O)OCCCN2CCC(c3ccccc3)(c3ccccc3)CC2)[C@H]1c1cccc([N+](=O)[O-])c1 [NIGULDIPINE]	13
Cc1c[nH]c2nccc(Oc3c(F)cc(Nc4cc(Cl)nc(N)n4)cc3F)c12 [BAY-549]	54
CNC(=O)Nc1ccc2c(c1)[C@@]1(CC2)OC(=O)N(CC(=O)N(Cc2ccc(F)cc2)[C@@H](C)C(F)(F)F)C1=O [A-486]	75
CCCSc1nc(N[C@@H]2C[C@H]2c2ccc(F)c(F)c2)c2nnn([C@@H]3C[C@H](OCCO)[C@@H](O)[C@H]3O)c2n1 [TICAGRELOR]	53

In: Read off the recorded Population Mitotic Cells (%) for Cc1ccccc1C(c1ccccc1C)N1C2CCC1CC(O)(c1ccccc1)C2 (stereo unspecified)
Out: 56

In: Read off the recorded Population Mitotic Cells (%) for COc1ccc(-c2ccc3ncc4c(c3c2)n(-c2ccc(N3CCNCC3)c(C(F)(F)F)c2)c(=O)n4C)cn1.O=C(O)/C=C\C(=O)O [BGT-226]
Out: 29

In: Read off the recorded Population Mitotic Cells (%) for Cc1nc(N2CC[C@H](O)C2)ncc1-c1cc(C(F)(F)F)cc2[nH]ncc12
Out: 77

====

System: HEK-293T
experiment: Multiplex assay against HEK293T
Type: toxicity, cell-based
cond: human, 48 h, 10 µM, compound concentration 10 uM, replicate 2
// reported Population Mitochondria Different-Phenotype (%) for each item listed
Write the value in % as a bare number.

compound	study_target	readout_value
Cc1cccc(CN2CCN(C(c3ccccc3)c3ccc(Cl)cc3)CC2)c1.Cl.Cl (stereo not given)	HEK-293T	67
COc1ccccc1CN[C@H]1C2CCN(CC2)[C@H]1C(c1ccccc1)c1ccccc1	HEK-293T	39
Cc1ccc2c(c1)c1c(n2CCc2ccc(C)nc2)CCN(C)C1 [LATREPIRDINE]	HEK-293T	97
Cc1c[nH]c2nccc(Oc3c(F)cc(Nc4cc(Cl)nc(N)n4)cc3F)c12	HEK-293T	10
CNC(=O)Nc1ccc(-c2nc(N3CC4CCC(C3)O4)c3cnn(C4CCC5(CC4)OCCO5)c3n2)cc1	HEK-293T	83

In: Read off the recorded Population Mitochondria Different-Phenotype (%) for CC1=C(C(=O)Nc2cc3cn[nH]c3cc2F)C(c2ccc(C(F)(F)F)cc2)CC(=O)N1 (stereo not given)
Out: 19

In: Read off the recorded Population Mitochondria Different-Phenotype (%) for O=C(c1cc2c(cc1F)OC(c1ccc(F)cc1)(c1ccc(Cl)cc1Cl)O2)N1CCOCC1 (stereo not given)
Out: 61

In: Read off the recorded Population Mitochondria Different-Phenotype (%) for CCc1ccc(OCc2ccccc2C(=O)Nc2ccc3nc(C)cc(N)c3c2)cc1.Cl
Out: 28

In: Read off the recorded Population Mitochondria Different-Phenotype (%) for COc1ccc(-c2ccc3ncc4c(c3c2)n(-c2ccc(N3CCNCC3)c(C(F)(F)F)c2)c(=O)n4C)cn1.O=C(O)/C=C\C(=O)O
Out: 48

In: Read off the recorded Population Mitochondria Different-Phenotype (%) for COC(=O)C1=C(C)NC(C)=C(C(=O)OCCCN2CCC(c3ccccc3)(c3ccccc3)CC2)[C@H]1c1cccc([N+](=O)[O-])c1
Out: 75

====

Tested on: HEK-293T
experiment: Incucyte cell viability with HEK293T; note: filed as whole numbers so only -1 and 0 and 1 occur
Assay type: toxicity, cell-based
cond: human, 12 h, 10 µM, compound concentration 10 uM, replicate number 1, timepoint 12 hours
// reported Growth Rate for each item listed
Keep the answer to the number alone.

Use these answered entries as a reference point.
molecule	Growth Rate
COc1cc2ncn(-c3cc(OCc4ccccc4C(F)(F)F)c(C(N)=O)s3)c2cc1OC [GW843682X]	0
C[C@H](NC[C@H](O)CP(=O)(O)CC1CCCCC1)c1ccc(Cl)c(Cl)c1.Cl	1
CSc1cccnc1N1CCN(Cc2nc3ccccc3[nH]2)CC1	0
Cc1cc(C)c(-n2ccn3nc(-c4cccnc4)cc23)cc1NC(=O)c1cc(C#N)cc(S(F)(F)(F)(F)F)c1	0
CCNC(=O)c1cc2c(N3CCOC[C@@H]3C)ccnc2n1C	0

In: Read off the recorded Growth Rate for CC(C)(C)NC[C@H](O)COc1nsnc1N1CCOCC1
Out: 0

In: Read off the recorded Growth Rate for CC(C)NC(=O)N1CC[C@H](NC2=Nc3cc(F)ccc3N(CC(F)F)c3ccc(Cl)cc32)C1
Out: 1

In: Read off the recorded Growth Rate for O=C(O)C1CN(Cc2ccc(OCc3ccc(Cl)c(Cl)c3)cc2)C1
Out: 0

In: Read off the recorded Growth Rate for CNC(=O)Nc1ccc(-c2nc(N3CC4CCC(C3)O4)c3cnn(C4CCC5(CC4)OCCO5)c3n2)cc1
Out: 0

In: Read off the recorded Growth Rate for CC(C)(O)c1ccccc1CC[C@@H](SCC1(CC(=O)[O-])CC1)c1cccc(/C=C/c2ccc3ccc(Cl)cc3n2)c1.[Na+] [MONTELUKAST SODIUM]
Out: 0

In: Read off the recorded Growth Rate for COc1ccccc1CN[C@H]1C2CCN(CC2)[C@H]1C(c1ccccc1)c1ccccc1
Out: 0

In: Read off the recorded Growth Rate for CN(C)C(=O)Cn1cc(-c2nc([C@@](C)(c3ccc(-c4cnc(N)nc4)cc3)C3CC3)no2)cn1
Out: 0
